Where these numbers come from: ChEMBL document CHEMBL2093137

Task for the reader: assign each of the following compounds its reported IC50.
# Test system: Trypanosoma brucei brucei
# protocol text: WHO-TDR: Human African Trypanosomiasis (HAT)
# Type: functional, organism-based
# test settings: Squib-427

Reference set, count: 5
> print(dat)
                                   compound  test.readout      measured
1  CCn1/c(=N\C(=O)c2ccc(C(C)=O)cc2)sc2cc(C)ccc21          IC50  > 10.2 µg/mL
2  Cc1ccc(-c2ccc(=O)n(CCCNS(=O)(=O)c3ccc(Cl)s3)n2)cc1          IC50  > 12.7 µg/mL
3    O=C(Nc1nc2c(F)cc(F)cc2s1)c1nc2ccccc2s1          IC50  > 11.1 µg/mL
4  O=C(Nc1ccc2c(c1)N(C(=O)C1CCCO1)CC2)c1ccco1 (stereo unspecified)          IC50  > 9.79 µg/mL
5               CSc1ccccc1NC(=O)c1ccc(Cl)s1          IC50  > 8.51 µg/mL

Okay, now this compound:
Ask: Give the reported IC50 for this compound. O=C(NCCc1ccc(Cl)cc1)c1csc(NS(=O)(=O)c2ccccc2)n1
Result: > 12.7 µg/mL

###

# System: Leishmania infantum
# protocol text: WHO-TDR: Leishmaniasis
# Assay type: functional, organism-based, Mus musculus
# test settings: Macrophage
Task for the reader: assign each of the following compounds its reported IC50.

> print(dat)
                                   compound      measured
1  CCN(CC)c1cc(C)nc(Nc2ccc(NC(=O)c3cc4ccccc4oc3=O)cc2)n1  > 13.3 µg/mL
2  CC1CCCN(S(=O)(=O)c2ccc(C(=O)Nc3nnc(-c4ccno4)o3)cc2)C1 (stereo not given)  > 12.5 µg/mL
3  Cc1cc(F)ccc1S(=O)(=O)Nc1ccc2c(c1)CN(C(=O)c1ccco1)CC2  > 12.4 µg/mL
4  COc1ccc(-c2nnc(NC(=O)c3ccn(C)n3)o2)cc1OC  > 9.88 µg/mL
5  CCc1ccc(NC(=O)c2oc3ccccc3c2NC(=O)Cc2cccs2)cc1  > 12.1 µg/mL

Quick batch: IC50 for everything below.
1. Cc1cccc(NC(=O)Cn2cc(S(=O)(=O)c3ccc(F)cc3)c3ccccc32)n1
2. O=S(=O)(CCCOc1ccc(F)cc1)NCCCc1ccccc1
3. Cc1cc(-c2nnc(NC(=O)c3nc4ccccc4s3)o2)nn1C
4. CCOC(=O)N1CCc2c(sc(NC(=O)c3nc4ccccc4s3)c2C(N)=O)C1
5. COc1ccc(C(=O)Nc2ccc(SCC(=O)N3CCCC3)nn2)c(OC)c1
6. CCCc1cc(=O)[nH]c(-n2nc(C)cc2NC(=O)COc2ccc(Cl)cc2Cl)n1
7. CCSc1nnc(-c2ccccc2)c2sc(C)nc12

Result:
1. > 12.7 µg/mL
2. > 10.5 µg/mL
3. > 10.2 µg/mL
4. 4.18 µg/mL
5. > 12.1 µg/mL
6. > 13.1 µg/mL
7. 2.79 µg/mL

Quick batch: IC50 for everything below.
1. COc1cccc(C(=O)Nc2nnc(SCc3ccc(Br)cc3)s2)c1
2. CCOc1ncccc1C(=O)Nc1c(C)nc2sc(C)c(C)n2c1=O

Result:
1: > 13.1 µg/mL; 2: 0.348 µg/mL

Ask: Give IC50 for this entry on Leishmania infantum: O=C(Nc1cc2ccccc2cc1NC(=O)c1ccc2c(c1)OCCO2)c1ccc2c(c1)OCCO2
Result: > 14.5 µg/mL

###

# System: Onchocerca lienalis
# protocol text: WHO-TDR: Onchocerciasis
# Type: functional
# Set-up: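 at 12.5 µM on microfilariae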
Task for the reader: assign each of the following molecules its reported % Inhibition.
Numbers only, in %.

> print(dat)
                                   molecule      measured.target  measured
1  CC(C)N1CCc2c(sc(NC(=O)c3cc4c(ccc5ccccc54)oc3=O)c2C(N)=O)C1  Onchocerca lienalis        -1
2  O=C(Nc1nc(-c2ccccn2)cs1)C1CCN(S(=O)(=O)c2cccs2)CC1  Onchocerca lienalis      9.31
3  Cc1nn(-c2ccccc2)c2[nH]cc(C(=O)Nc3ccc(F)c(Cl)c3)c(=O)c12  Onchocerca lienalis        -1
4  CN(C)CCCN(C(=O)CCOc1ccccc1)c1nc2cc3c(cc2s1)OCO3  Onchocerca lienalis         0

Quick batch: % Inhibition for everything below.
1. COc1ccc(C)c2sc(N(CCCN(C)C)C(=O)c3ccccc3SC)nc12
2. CCOC(=O)c1c(NC(=O)Cn2c(-n3nc(C)cc3C)nc(CC)cc2=O)sc2c1CCCCC2
3. COc1ccccc1-c1nnc(NC(=O)c2ccc(S(=O)(=O)N(C)Cc3ccco3)cc2)o1
4. COc1ccc(-c2nnc(NC(=O)c3ccc(S(=O)(=O)N4CC(C)OC(C)C4)cc3)o2)c(OC)c1 (centres undefined)
5. COc1cccc(-n2ccnc2SCC(=O)Nc2ccccc2C(F)(F)F)c1

Result:
[13.3, 0, 0, 66.7, 0]

Quick batch: % Inhibition for everything below.
1. Cc1ccc2sc(N(CCN(C)C)C(=O)C3CCN(S(=O)(=O)c4cccs4)CC3)nc2c1C
2. CC(C)S(=O)(=O)c1ccc(C(=O)Nc2ccccc2-c2nc3ccccc3[nH]2)cc1
3. COC(=O)c1ccc(COc2cccc3c2CCN(Cc2ccc(Cl)cc2)C3=O)o1
4. CCN(C1CCCCC1)S(=O)(=O)c1ccc(C(=O)Nc2nnc(-c3ccccc3)o2)cc1
5. CCc1ccc(NC(=O)c2oc3ccccc3c2NC(=O)Cc2cccs2)cc1

Result:
1: 16.32; 2: 13.3; 3: 20; 4: 53.3; 5: 0

###

# Test system: Plasmodium falciparum K1
# protocol text: WHO-TDR: Malaria
# Format: functional, organism-based, Homo sapiens
# test settings: Erythrocyte
Task for the reader: assign each of the following compounds its reported IC50.

> print(dat)
                           smiles.structure      measured
1  CN(C)c1ccc(NC(=O)Cc2csc(SCc3ccncc3)n2)cc1  > 11.5 µg/mL
2   CS(=O)(=O)N1CCN(c2ccc(-c3ccccn3)nn2)CC1  > 9.58 µg/mL

Okay, now this compound:
Ask: Give the reported IC50 for this compound. O=C(c1ccccc1)N1CCN(c2ccc(Nc3ccccn3)nn2)CC1
Result: > 10.8 µg/mL

###

# Tested on: Plasmodium falciparum K1
# protocol text: WHO-TDR: Malaria
# Assay type: functional, organism-based, Homo sapiens
# test settings: Erythrocyte
Task for the reader: assign each of the following compounds its reported IC50.

Quick batch: IC50 for everything below.
1. CCN(CC)c1cc(C)nc(Nc2ccc(NC(=O)c3cc4ccccc4oc3=O)cc2)n1
2. Cc1ccc(S(=O)(=O)NCCNc2ccc(Nc3cccc(C)n3)nn2)c(C)c1
3. N#Cc1cnc2c(F)cccc2c1Nc1ccc(Br)cc1
4. O=C(CCc1csc(NC(=O)c2ccco2)n1)NCCc1c[nH]c2ccccc12

Result:
1. 0.412 µg/mL
2. > 12.4 µg/mL
3. > 11.4 µg/mL
4. > 12.3 µg/mL

Quick batch: IC50 for everything below.
1. CCn1ccnc1N1CCN(CC(=O)NC2CCCCC2)CC1
2. O=C(c1cccc(F)c1)N(CCCn1ccnc1)c1nc2ccc(F)cc2s1
3. O=C(Nc1nc(-c2ccccn2)cs1)c1cc(Cl)sc1Cl
4. O=S(=O)(c1cccnc1)N1CCN(c2ccc(-c3cccs3)nn2)CC1
5. COc1ccc2nc(-c3ccc(F)c(NC(=O)Cc4ccccc4)c3)cn2n1

Result:
> 11.8 µg/mL
0.745 µg/mL
> 10.7 µg/mL
> 11.6 µg/mL
> 11.3 µg/mL

Quick batch: IC50 for everything below.
1. O=C(CSc1ncc(-c2ccccc2)[nH]1)N1CCCc2ccccc21
2. O=S(=O)(CCCOc1ccc(F)cc1)NCc1c(F)cccc1F
3. O=C(NCCNc1ccc(Nc2ccccn2)nn1)Nc1ccc(F)cc1
4. COc1ccc(-c2cn3c(C(=O)Nc4ccccc4F)csc3n2)cc1
5. O=C(CSc1nnc(NC(=O)c2cccs2)s1)NCc1ccccc1Cl
6. CCOC(=O)c1c(NC(=O)CSc2nc3c([nH]c4ccccc43)c(=O)n2-c2ccccc2)sc2c1CCC2

Result:
1. > 10.5 µg/mL
2. > 10.8 µg/mL
3. > 11 µg/mL
4. > 11 µg/mL
5. 1.2 µg/mL
6. > 16.3 µg/mL

Quick batch: IC50 for everything below.
1. COc1cccc2sc(Nc3nnc(-c4cccs4)o3)nc12
2. NC(=O)CSc1nc(-c2ccccc2)c(NC(=O)c2cc3ccccc3o2)s1
3. O=C(c1ccc(F)cc1F)N1CCN(c2ccc(-c3cccnc3)nn2)CC1
4. Fc1ccccc1CSc1ccc(-c2ccccn2)nn1
5. Cc1cccc(NC(=O)Cn2cc(S(=O)(=O)c3ccc(F)cc3)c3ccccc32)n1
6. CCOc1ccc2nc(NC(=O)CS(=O)(=O)c3ccc(Cl)cc3)sc2c1

Result:
1: 1.25 µg/mL; 2: > 12.3 µg/mL; 3: > 11.4 µg/mL; 4: > 8.92 µg/mL; 5: > 12.7 µg/mL; 6: > 12.3 µg/mL
